system: Pichia kudriavzevii; assay: Antifungal activity against Candida krusei by broth microdilution method; type: functional
Property label: MIC
Write the quantity with the unit trailing the number.

In the examples that follow, each entry is paired with its recorded MIC.
I am curious: what MIC value has been reported for CCC(C)n1ncn(-c2ccc(N3CCN(c4ccc(OCC5COC(Cn6cncn6)(c6ccc(Cl)cc6Cl)O5)cc4)CC3)cc2)c1=O (stereo not given) ?
1 µg/mL

Okay, and COC(=O)c1ccc(COC(Cn2ccnc2)c2ccc(Cl)cc2Cl)cc1 (stereo not given) ?
0.12 µg/mL

New cases:
Which measured MIC value corresponds to OCc1ccc(COC(Cn2ccnc2)c2ccc(Cl)cc2Cl)cc1 (stereo not given) ?
1 µg/mL

Ok, now O=C(O)C(OC(Cn1ccnc1)c1ccc(Cl)cc1Cl)c1ccccc1Cl (stereo not given)
0.5 µg/mL

// repeat for COc1ccc(CCOC(Cn2ccnc2)c2ccc(Cl)cc2Cl)cc1OC (stereo not given) and report
2 µg/mL

----------
tested on: Candida albicans; assay: Antifungal activity against Candida albicans Strain 7 by broth microdilution method; assay type: functional
The entries below come with measured MIC values attached.
Form entry: value (µg/mL) — number only.

Known MIC results, listed for orientation:
What value of measured MIC is listed for CCC(C)n1ncn(-c2ccc(N3CCN(c4ccc(OCC5COC(Cn6cncn6)(c6ccc(Cl)cc6Cl)O5)cc4)CC3)cc2)c1=O (stereo not given) ?
0.06

Next molecule up: COC(=O)c1ccc(COC(Cn2ccnc2)c2ccc(Cl)cc2Cl)cc1 (stereo not given)
0.12

One more molecule: OCc1ccc(COC(Cn2ccnc2)c2ccc(Cl)cc2Cl)cc1 (stereo not given)
0.12

Next:
Item O=C(O)C(OC(Cn1ccnc1)c1ccc(Cl)cc1Cl)c1ccccc1Cl (stereo not given) has what recorded MIC?
0.25

Ok, now COc1ccc(CCOC(Cn2ccnc2)c2ccc(Cl)cc2Cl)cc1OC (stereo not given)
0.5

----------
tested on: Candida albicans; experiment: Antifungal activity against Candida albicans Strain 26 by broth microdilution method; assay type: functional
Recorded MIC values for a group of compounds are listed next.
// return numeric value only (unit: µg/mL, not printed)

The cases that follow already have their MIC on record.
For the record COc1ccc(CCOC(Cn2ccnc2)c2ccc(Cl)cc2Cl)cc1OC (stereo not given) , what value of MIC is listed for Candida albicans?
0.5

Same thing, different compound: OCc1ccc(COC(Cn2ccnc2)c2ccc(Cl)cc2Cl)cc1 (stereo not given)
0.25

O=C(O)C(OC(Cn1ccnc1)c1ccc(Cl)cc1Cl)c1ccccc1Cl (stereo not given) , same question.
0.25

Consider next the compound COC(=O)c1ccc(COC(Cn2ccnc2)c2ccc(Cl)cc2Cl)cc1 (stereo not given) in the same way.
0.12

Now consider the entry below.
API: value(readout=MIC, system=Candida albicans) for record CCC(C)n1ncn(-c2ccc(N3CCN(c4ccc(OCC5COC(Cn6cncn6)(c6ccc(Cl)cc6Cl)O5)cc4)CC3)cc2)c1=O (stereo not given)
0.12

----------
system: Candida albicans; experiment: Antifungal activity against Candida albicans Strain 2 by broth microdilution method; type: functional
Property label: MIC (µg/mL)
Quick reminder: number only, in µg/mL, skip the unit.

Illustrative cases are given below, each with its answer.
MIC for COC(=O)c1ccc(COC(Cn2ccnc2)c2ccc(Cl)cc2Cl)cc1 (stereo not given) ?
0.12

Can you handle O=C(O)C(OC(Cn1ccnc1)c1ccc(Cl)cc1Cl)c1ccccc1Cl (stereo not given) next?
0.25

Note, next up: OCc1ccc(COC(Cn2ccnc2)c2ccc(Cl)cc2Cl)cc1 (stereo not given)
0.12

Try CCC(C)n1ncn(-c2ccc(N3CCN(c4ccc(OCC5COC(Cn6cncn6)(c6ccc(Cl)cc6Cl)O5)cc4)CC3)cc2)c1=O (stereo not given) next.
0.06

***
What does the record list as MIC for COc1ccc(CCOC(Cn2ccnc2)c2ccc(Cl)cc2Cl)cc1OC (stereo not given) ?
0.5

----------
test system: Candida albicans; assay: Antifungal activity against Candida albicans Strain 3 by broth microdilution method; assay type: functional
compounds and their reported MIC
Number only, in µg/mL; omit the unit.

Any idea what MIC was measured for COC(=O)c1ccc(COC(Cn2ccnc2)c2ccc(Cl)cc2Cl)cc1 (stereo not given) ?
0.12

Next:
Which MIC is reported for this compound? OCc1ccc(COC(Cn2ccnc2)c2ccc(Cl)cc2Cl)cc1 (stereo not given)
0.12

# repeat for CCC(C)n1ncn(-c2ccc(N3CCN(c4ccc(OCC5COC(Cn6cncn6)(c6ccc(Cl)cc6Cl)O5)cc4)CC3)cc2)c1=O (stereo not given) [ITRACONAZOLE]
0.03

Entry O=C(O)C(OC(Cn1ccnc1)c1ccc(Cl)cc1Cl)c1ccccc1Cl (stereo not given) please
0.12

Also COc1ccc(CCOC(Cn2ccnc2)c2ccc(Cl)cc2Cl)cc1OC (stereo not given) , if possible.
0.12

----------
test system: Candida albicans; assay: Antifungal activity against Candida albicans Strain 12 by broth microdilution method; assay type: functional
Property label: MIC
// return the numeric value with its unit appended

Dear colleague, I am looking for the recorded MIC of the following molecule: COc1ccc(CCOC(Cn2ccnc2)c2ccc(Cl)cc2Cl)cc1OC (stereo not given)
0.5 µg/mL

Next up: COC(=O)c1ccc(COC(Cn2ccnc2)c2ccc(Cl)cc2Cl)cc1 (stereo not given)
0.12 µg/mL

Again, but for O=C(O)C(OC(Cn1ccnc1)c1ccc(Cl)cc1Cl)c1ccccc1Cl (stereo not given)
0.25 µg/mL

Entry to check: CCC(C)n1ncn(-c2ccc(N3CCN(c4ccc(OCC5COC(Cn6cncn6)(c6ccc(Cl)cc6Cl)O5)cc4)CC3)cc2)c1=O (stereo not given)
0.12 µg/mL

Next:
If you can, please state the reported MIC value of OCc1ccc(COC(Cn2ccnc2)c2ccc(Cl)cc2Cl)cc1 (stereo not given) .
0.12 µg/mL

----------
test system: Candida albicans; test: Antifungal activity against Candida albicans Strain 22 by broth microdilution method; type: functional
List of MIC values.
Supply the numeric figure in µg/mL, leaving out any unit text.

Recorded MIC of CCC(C)n1ncn(-c2ccc(N3CCN(c4ccc(OCC5COC(Cn6cncn6)(c6ccc(Cl)cc6Cl)O5)cc4)CC3)cc2)c1=O (stereo not given) , please.
0.03

Request: COc1ccc(CCOC(Cn2ccnc2)c2ccc(Cl)cc2Cl)cc1OC (stereo not given)
0.12

Record: COC(=O)c1ccc(COC(Cn2ccnc2)c2ccc(Cl)cc2Cl)cc1 (stereo not given)
0.06

***
Requested read-out: MIC. Entry: O=C(O)C(OC(Cn1ccnc1)c1ccc(Cl)cc1Cl)c1ccccc1Cl (stereo not given)
0.12

What about this compound? OCc1ccc(COC(Cn2ccnc2)c2ccc(Cl)cc2Cl)cc1 (stereo not given)
0.12

----------
system: Candida albicans; assay: Antifungal activity against Candida albicans Strain 11 by broth microdilution method; assay type: functional
Property label: MIC (µg/mL)
Express the result in µg/mL but write the number alone.

As a guide, the following entries are already answered.
Candida albicans / MIC / COc1ccc(CCOC(Cn2ccnc2)c2ccc(Cl)cc2Cl)cc1OC (stereo not given) : value?
0.5

Same for O=C(O)C(OC(Cn1ccnc1)c1ccc(Cl)cc1Cl)c1ccccc1Cl (stereo not given)
0.25

Try CCC(C)n1ncn(-c2ccc(N3CCN(c4ccc(OCC5COC(Cn6cncn6)(c6ccc(Cl)cc6Cl)O5)cc4)CC3)cc2)c1=O (stereo not given) [ITRACONAZOLE] next.
0.06

Again, but for COC(=O)c1ccc(COC(Cn2ccnc2)c2ccc(Cl)cc2Cl)cc1 (stereo not given)
0.12

Next:
Checklist item: MIC tested on Candida albicans, entry OCc1ccc(COC(Cn2ccnc2)c2ccc(Cl)cc2Cl)cc1 (stereo not given) , value?
0.25

All figures here come from ChEMBL document CHEMBL3421620.
